biological target: human EGFR (huEGFR) over-expressed on mcl-1-/- mouse embryonic fibroblasts (human, UniProt P00533 25-1210); assay: cell-based or functional assay
Entries and their measured huEGFR+ mcl-1-/- MEF EC50 follow.
Response body: numeric value in nM, unit text excluded.

Illustrative cases are given below, each with its answer.
AbB-YG (antibody, human IgG1, kappa, V domains shown, synthon YG on reduced interchain cysteines; average DAR 1.1 per ADC) VH: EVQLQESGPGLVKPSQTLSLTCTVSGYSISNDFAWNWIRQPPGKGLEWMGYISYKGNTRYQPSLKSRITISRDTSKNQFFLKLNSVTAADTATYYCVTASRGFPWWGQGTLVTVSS VL: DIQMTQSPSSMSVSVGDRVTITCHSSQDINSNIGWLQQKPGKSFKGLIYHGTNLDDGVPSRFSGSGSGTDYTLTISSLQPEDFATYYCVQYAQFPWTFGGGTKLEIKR :: 3.3
AbG-SE (antibody, human IgG1, kappa, V domains shown, synthon SE on reduced interchain cysteines; average DAR 3.8 per ADC) VH: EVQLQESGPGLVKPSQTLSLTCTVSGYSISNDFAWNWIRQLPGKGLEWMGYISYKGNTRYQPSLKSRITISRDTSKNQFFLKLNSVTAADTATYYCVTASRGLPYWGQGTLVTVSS VL: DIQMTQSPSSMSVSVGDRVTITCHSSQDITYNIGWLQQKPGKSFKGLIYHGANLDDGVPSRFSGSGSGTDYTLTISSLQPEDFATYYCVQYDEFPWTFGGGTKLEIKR :: 24
AbK-YG (antibody, human IgG1, kappa, V domains shown, synthon YG on reduced interchain cysteines; average DAR 0.9 per ADC) VH: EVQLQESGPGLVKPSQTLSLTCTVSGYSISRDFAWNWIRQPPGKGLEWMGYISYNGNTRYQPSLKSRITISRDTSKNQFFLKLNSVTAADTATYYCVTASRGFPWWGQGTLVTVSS VL: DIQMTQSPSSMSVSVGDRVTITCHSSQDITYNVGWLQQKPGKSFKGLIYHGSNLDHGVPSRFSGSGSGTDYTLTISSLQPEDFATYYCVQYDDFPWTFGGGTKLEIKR :: 37

Give its huEGFR+ mcl-1-/- MEF EC50 value. Item: AbG-AAD (antibody, human IgG1, kappa, V domains shown, synthon AAD on reduced interchain cysteines; average DAR 3.4 per ADC) VH: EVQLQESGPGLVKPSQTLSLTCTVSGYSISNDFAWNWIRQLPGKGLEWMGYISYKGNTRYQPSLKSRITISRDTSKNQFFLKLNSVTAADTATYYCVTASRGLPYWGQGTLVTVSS VL: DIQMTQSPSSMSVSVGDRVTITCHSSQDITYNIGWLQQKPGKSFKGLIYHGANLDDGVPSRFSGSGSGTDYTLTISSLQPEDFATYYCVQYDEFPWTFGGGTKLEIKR
108
